Where do these numbers come from? They come from patent US7737155B2.

- target.or.system: recombinant human nicotinic acid receptor (NAR) (Homo sapiens)
- Sequence (Q8TDS4 whole entry): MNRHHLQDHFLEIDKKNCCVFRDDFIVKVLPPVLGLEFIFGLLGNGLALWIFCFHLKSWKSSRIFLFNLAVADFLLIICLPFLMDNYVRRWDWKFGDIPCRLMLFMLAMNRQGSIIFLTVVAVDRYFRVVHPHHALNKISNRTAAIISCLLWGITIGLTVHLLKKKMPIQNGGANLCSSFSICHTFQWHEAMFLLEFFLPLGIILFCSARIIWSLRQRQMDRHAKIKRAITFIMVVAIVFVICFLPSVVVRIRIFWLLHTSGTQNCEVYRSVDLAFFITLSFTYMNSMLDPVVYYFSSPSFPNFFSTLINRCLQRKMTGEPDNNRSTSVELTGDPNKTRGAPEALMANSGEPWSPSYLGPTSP
- method: Nicotinic Acid Receptor Assay: inhibition of forskolin-stimulated cAMP accumulation in CHO cells (MesoScale Discovery cAMP kit)
- Format: cell-based
- condition.context: inhibition of forskolin-stimulated cAMP accumulation, CHO cells expressing recombinant human NAR; read-out: NA EC50 camp
The recorded EC50 of each item maps onto one of these classes: low end = under 50 nM, middle = from 50 nM up to 200 nM, high end = 200 nM and over

Observe how each entry below is paired with its result.
molecule="O=c1cc(CCC2CC2)c2c(=O)[nH]c(OCC#CC3CC3)nc2o1 [Compound 722]" class_name=middle
molecule="O=c1cc(CCCC2CC2)c2c(=O)n(C(F)F)c(=O)[nH]c2o1 [Compound 814]" class_name=middle
molecule="O=c1cc(CCC2CCCC2)c2c(=O)[nH]c(CF)nc2o1 [Compound 747]" class_name="high end"
molecule="Cc1cc(=O)oc2nc(CF)[nH]c(=O)c12 [Compound 810]" class_name="high end"
molecule="CCn1c(=O)[nH]c2oc(=O)cc(CCC3CCCC3)c2c1=O [Compound 781]" class_name=middle
molecule="CCc1cc(=O)n(C)c2[nH]c(=O)[nH]c(=O)c12 [Compound 808]" class_name="high end"

### Prompt Kindly identify the class of CCOc1nc(=O)[nH]c2oc(=O)cc(CCC3CCC3)c12 [Compound 786] .
### Response high end

### Prompt Now the same for CCOn1c(=O)[nH]c2oc(=O)cc(CCC3CCC3)c2c1=O [Compound 777]
### Response high end

### Prompt What about this molecule? CCCCCc1cc(=O)oc2nc(C(F)F)nc(OCc3ccc(OC)cc3)c12 [Compound 742]
### Response high end

* * *

- target.or.system: recombinant human nicotinic acid receptor (NAR) (Homo sapiens)
- method: Nicotinic Acid Receptor Assay: inhibition of forskolin-stimulated cAMP accumulation in CHO cells (MesoScale Discovery cAMP kit)
- Type: cell-based
- condition.context: CHO cells expressing recombinant human NAR; forskolin-stimulated cAMP; read-out: NA EC50 camp
pEC50: −log10 of the molar value.
measure: pEC50

Some solved cases for reference:
structure_notation=CCCOCCCc1cc(=O)oc2[nH]c(=O)[nH]c(=O)c12 reading="7.00 to 12.00"
structure_notation=O=c1[nH]c(=O)c2c(CCC3CCC3)c(-c3ccccc3)c(=O)oc2[nH]1 reading="< 6.00"

Give pEC50 for all compounds that follow.
1. O=c1cc(CCC2CCCC2)c2c(=O)n(C3CCC3)c(=O)[nH]c2o1
2. CCc1cc(=O)oc2nc(OCc3ccc(C)cc3C)[nH]c(=O)c12
3. O=c1[nH]c(=O)c2c(CCCc3cn(Cc4ccccc4)nn3)cc(=O)oc2[nH]1
4. CCc1cc(=O)oc2nc(OCc3cccc(N(C)C)c3)[nH]c(=O)c12
5. CCc1cc(=O)oc2nc(OCc3cccc(C(F)(F)F)n3)[nH]c(=O)c12

### Response
1. 7.00 to 12.00
2. 6.00 to 7.00
3. 6.00 to 7.00
4. 6.00 to 7.00
5. 6.00 to 7.00

Give pEC50 for each of the items listed below.
1. CCOC(=O)NOc1nc2oc(=O)cc(CCC3CCC3)c2c(=O)[nH]1
2. CCc1cc(=O)oc2nc(OCc3ccncc3Cl)[nH]c(=O)c12

### Response
1: 7.00 to 12.00; 2: 6.00 to 7.00
